Molecular target: mTOR (Homo sapiens)
Construct: endogenous in cells; host or cells: Jurkat, clone E6-1 (ATCC TIB-152) cell lysate
Experiment: mTOR kinobeads assay (competitive binding in Jurkat cell lysate, immunodetection)
Settings: kinobeads assay, Table 6; read-out: Inhibition values (IC50) mTOR
ASSAY METRIC: IC50

# query: IC50 of entry CCNC(=O)Nc1ccc(-c2nc3c(c(N4CCOC[C@@H]4C)n2)CN(C)C3)cc1 [Example 26] < 100 nM

Fill in: IC50 of C[C@H]1COCCN1c1nc(-c2ccc(NC(=O)Nc3cccc(O)n3)cc2)nc2c1CN(C)C2 [Example 80] is ___ < 100 nM

Need IC50 of Cc1cc(NC(=O)Nc2ccc(-c3nc4c(c(N5CCOC[C@@H]5C)n3)CN(C)C4)cc2)no1 [Example 72] , thanks. 100 to 1000 nM

Fill in: IC50 of CCNC(=O)Nc1ccc(-c2nc3c(c(N4CCOC[C@@H]4C)n2)CCN(C(=O)C(C)C)C3)cc1 [Example 57] is ___ < 100 nM

What measured IC50 goes with CCNC(=O)Nc1ccc(-c2nc3c(c(N4CCOC[C@@H]4C)n2)CN(C(=O)c2ccc(F)cc2)C3)cc1 [Example 19] ? 100 to 1000 nM

Given the entry C[C@H]1COCCN1c1nc(-c2ccc(NC(=O)NC3CC3)cc2)nc2c1CN(CC1CC1)C2 [Example 30] , report its measured IC50. < 100 nM

Query (compound): CCNC(=O)N1Cc2nc(-c3ccc(NC(=O)NC4CC4)cc3)nc(N3CCOC[C@@H]3C)c2C1 [Example 33] ; field requested: IC50 < 100 nM

Can you share its IC50? I mean this compound: C[C@@H]1COCCN1c1nc(-c2ccc(NC(=O)NC3CC3)cc2)nc2c1CNC2 [Example 9] < 100 nM

Value lookup for IC50; key = CCNC(=O)Nc1ccc(-c2nc3c(c(N4CCOCC4)n2)CCN(C(=O)C(C)(C)C)C3)cc1 [Example 98] < 100 nM

Query: IC50; subject: CCOC(=O)N1Cc2nc(-c3ccc(NC(=O)NC4CC4)cc3)nc(N3CCOC[C@@H]3C)c2C1 [Example 34] < 100 nM

What does the record list as IC50 for C[C@H]1COCCN1c1nc(-c2ccc(NC(=O)NC3CC3)cc2)nc2c1CN(C(=O)C1CC1)C2 [Example 17] ? < 100 nM

Which IC50 is reported for this compound? CC(C)C(=O)N1CCc2c(nc(-c3ccc(NC(=O)NC4CC4)cc3)nc2N2CCOC[C@@H]2C)C1 [Example 61] < 100 nM

# get_value(readout='IC50', item= C[C@H]1COCCN1c1nc(-c2ccc(NC(=O)NCCCO)cc2)nc2c1CN(C)C2 [Example 51] ) < 100 nM

Consider the compound C[C@H]1COCCN1c1nc(-c2ccc(NC(=O)NC3CC3)cc2)nc2c1CN(CC(C)(C)C)C2 [Example 25] and give its measured IC50. 100 to 1000 nM

May I ask what IC50 has been recorded for COCCCNC(=O)Nc1ccc(-c2nc3c(c(N4CCOC[C@@H]4C)n2)CN(C)C3)cc1 [Example 53] ? 100 to 1000 nM

Which IC50 reading was recorded for the compound CCNC(=O)Nc1ccc(-c2nc3c(c(N4CCOC[C@@H]4C)n2)CCN(C)C3)cc1 [Example 35] ? < 100 nM

Look up IC50 for this compound: CCNC(=O)Nc1ccc(-c2nc3c(c(N4CCOC[C@@H]4C)n2)CN(C(C)=O)C3)cc1 [Example 18] < 100 nM

Fill in the blank: the reported IC50 of CCNC(=O)Nc1ccc(-c2nc3c(c(N4CCOC[C@@H]4C)n2)CCN(C(=O)Cc2cccnc2)C3)cc1 [Example 91] is ____. < 100 nM

Quick check: IC50 of CCOC(=O)N1Cc2nc(-c3ccc(NC(=O)NCC(=O)O)cc3)nc(N3CCOC[C@@H]3C)c2C1 [Example 115] ? 100 to 1000 nM

Given the compound CCNC(=O)Nc1ccc(-c2nc3c(c(N4CCOC[C@@H]4C)n2)CN(CC(C)C)C3)cc1 [Example 66] , what is its reported IC50? < 100 nM

Fill in: IC50 of CCNC(=O)Nc1ccc(-c2nc3c(c(N4CCOCC4)n2)CN(C)C3)cc1 [Example 69] is ___ < 100 nM

Form field: reported IC50 of CCNC(=O)Nc1ccc(-c2nc3c(c(N4CCOC[C@@H]4C)n2)CCNC3)cc1 [Example 13] < 100 nM

Requested field: IC50. Item: CCNC(=O)Nc1ccc(-c2nc3c(c(N4CCOC[C@@H]4C)n2)CCN(C)C3)c(C)c1 [Example 109] 100 to 1000 nM

Can you share its IC50? I mean this compound: C[C@H]1COCCN1c1nc(-c2ccc(NC(=O)NC3CC3)cc2)nc2c1CCN(C(=O)C(C)(C)C)C2 [Example 64] < 100 nM

Bench note: what IC50 did CCNC(=O)Nc1ccc(-c2nc3c(c(N4CCOC[C@@H]4C)n2)CN(CC2CC2)C3)cc1 [Example 28] show? < 100 nM

IC50 for C[C@H]1COCCN1c1nc(-c2ccc(NC(=O)NC3CC3)cc2)nc2c1CN(C(=O)CCNC(N)=O)C2 [Example 136] ? < 100 nM

Quick one: IC50 of CCNC(=O)Nc1ccc(-c2nc3c(c(N4CCOCC4)n2)CN(C(=O)C(C)(C)C)C3)cc1 [Example 100] ? 100 to 1000 nM

Look up IC50 for this compound: CCNC(=O)Nc1ccc(-c2nc3c(c(N4CCOC[C@@H]4C)n2)CCN(CC2CC2)C3)cc1 [Example 37] < 100 nM

Quick one: IC50 for CC(C)CN1Cc2nc(-c3ccc(NC(=O)NC4CC4)cc3)nc(N3CCOC[C@@H]3C)c2C1 [Example 65] ? < 100 nM

Find the recorded IC50 belonging to CCNC(=O)Nc1ccc(-c2nc3c(c(N4CCOC[C@@H]4C)n2)CCN(C(=O)CO)C3)cc1 [Example 102] and report it. < 100 nM

Quick check: IC50 of CCNC(=O)Nc1ccc(-c2nc3c(c(N4CCOC[C@@H]4C)n2)CCN(C(=O)OCC)C3)cc1 [Example 77] ? < 100 nM
